- assay info: chemical genetic growth profiling, strain panel (AID 1159580);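 further: tested at 20 µM; growth read once vehicle control cultures reached saturation at 30 °C; 1 = growth at the plate median or of vehicle wells; lower values mean less growth of the strain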
- condition info: S. cerevisiae deletion strains, growth OD, locus YNL153C, strain GIM3, stronger effect = lower value
The campaign covered roughly 5,500 compounds. About 2,000 (36%) were called active. Another 18% or so got no clear call; they are omitted. Some of the results follow.
Entries annotated with measured normalized growth
property: normalized growth

compound: NNC(=O)c1ccncc1
endpoint result: 1.01
//
compound: O=C(N/N=C\c1c(O)ccc2ccccc12)N/N=C\c1c(O)ccc2ccccc12
endpoint result: 0.951
//
compound: Nc1ccccc1C(=O)CC(N)C(=O)O (configuration not stated)
endpoint result: 0.988
//
compound: CCN1CCC[C@H]1CNC(=O)c1cc(S(N)(=O)=O)ccc1OC
endpoint result: 1.02
//
compound: Nc1ccccc1C(=O)N/N=C\c1cccc2ccccc12
endpoint result: 1.01
//
compound: Cc1noc(C)c1NC(N)=O
endpoint result: 0.999
//
compound: Cc1noc(N)c1C(N)=S
endpoint result: 1.01

* * *

- assay info: chemical genetic growth profiling, strain panel (AID 1159580)
- condition info: S. cerevisiae deletion strains, growth OD, locus YBR171W, strain sec66, stronger effect = lower value
In all, about 5,500 compounds went through this assay and about 2,000 (36%) were called active. Inconclusive results (about 18%) are left out. This is one part of the list.
Each entry below carries its reported normalized growth.

compound: C#C[C@]1(O)CCC2C3CCC4=C(CCC(=O)C4)C3CC[C@@]21C (some centres undefined)
normalized growth: 0.974
//
compound: CCCCCCCCCCCCCCC(C(=O)O)C(O)(CC(=O)OC)C(=O)O (centres undefined)
normalized growth: 0.999
//
compound: Nc1c2ccccc2nc2ccccc12
normalized growth: 1.09
//
compound: C#C[C@]1(OC(C)=O)CCC2C3CCC4=C/C(=N\O)CCC4C3CC[C@@]21CC (some centres undefined)
normalized growth: 0.944

* * *

- assay info: chemical genetic growth profiling, strain panel (AID 1159580);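 further: tested at 20 µM; growth read once vehicle control cultures reached saturation at 30 °C; 1 = growth at the plate median or of vehicle wells; lower values mean less growth of the strain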
- condition info: S. cerevisiae deletion strains, growth OD, locus YJL187C, strain SWE1 (second series), stronger effect = lower value
The whole screen tested about 5,500 compounds, of which about 2,000 (36%) were called active. About 18% were inconclusive and are not listed. This is one part of the list.
Listing of recorded normalized growth by entry.
property: normalized growth

molecule: NNC(=O)c1ccncc1
property: normalized growth
endpoint result: 1.01
--
molecule: CC1(C)CC[C@@]2(C(=O)O)C(C1)C1=CCC3[C@@]4(C)CC[C@H](O)C(C)(C)C4CC[C@@]3(C)[C@]1(C)C[C@@H]2O (some centres not stated)
property: normalized growth
endpoint result: 1.02
--
molecule: COc1c(CC(=O)c2cc3c(cc2O)OC(C)(C)C(O)C3)ccc2c1C=CC(C)(C)O2 (configuration not stated)
property: normalized growth
endpoint result: 1.02
--
molecule: C[C@@H]1CC[C@]2(C(=O)O)CC[C@]3(C)C(=CCC4[C@@]5(C)CC[C@H](O)C(C)(C)C5CC[C@]43C)C2[C@H]1C (some centres not stated)
property: normalized growth
endpoint result: 1.05
--
molecule: C/C=C(/C)C(=O)O[C@@H]1[C@H](OC(C)=O)[C@@]2(CO)C(CC1(C)C)C1=CCC3[C@@]4(C)CC[C@H](O[C@@H]5O[C@H](C(=O)O)[C@@H](O[C@@H]6O[C@H](CO)[C@@H](O)[C@H](O)[C@H]6O)[C@H](O)[C@H]5O[C@@H]5O[C@H](CO)[C@@H](O)[C@H](O)[C@H]5O)[C@](C)(CO)C4CC[C@@]3(C)[C@]1(C)C[C@H]2O (some centres not stated)
property: normalized growth
endpoint result: 1.02
--
molecule: CC(C)(Oc1ccc(CCNC(=O)c2ccc(Cl)cc2)cc1)C(=O)O
property: normalized growth
endpoint result: 1.01
--
molecule: O=C1c2c(O)cccc2Cc2cccc(O)c21
property: normalized growth
endpoint result: 1.02

* * *

- assay info: chemical genetic growth profiling, strain panel (AID 1159580);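 further: tested at 20 µM; growth read once vehicle control cultures reached saturation at 30 °C; 1 = growth at the plate median or of vehicle wells; lower values mean less growth of the strain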
- condition info: S. cerevisiae deletion strains, growth OD, locus YPL256C, strain CLN2, stronger effect = lower value
In all, about 5,500 compounds went through this assay and about 2,000 (36%) were called active. Not shown: some 18% with an inconclusive outcome. The list shows a part of the results.
property: normalized growth

compound: CN1[C@@H]2CC[C@@H]1CC(O)C2 (stereo partly specified)
endpoint result: 1.06 (inactive)
//
compound: Cc1nc(-c2ccccn2)nc(N(C)Cc2ccccc2)c1Cl
endpoint result: 0.985 (inactive)
//
compound: CCOC(=O)OC(C)OC(=O)C1N2C(=O)C(NC(=O)[C@H](N)c3ccccc3)C2SC1(C)C (stereo partly specified)
endpoint result: 0.978 (inactive)
//
compound: Clc1ccccc1C(c1ccccc1)(c1ccccc1)n1ccnc1
endpoint result: 0.127 (active)
//
compound: CC(=O)/C=C\[C@@H]1[C@@]2(C)CCCC(C)(C)C2CC[C@@]1(C)O (stereo partly specified)
endpoint result: 0.979 (inactive)
//
compound: Nc1ccc(S(=O)(=O)c2ccc(N)cc2)cc1
endpoint result: 1.02 (inactive)
//
compound: COC(=O)C[C@H]1C(C)(C)C2(O)OC34CC2C(=O)[C@]1(C)C3CC[C@]1(C)C4=CC(=O)O[C@H]1c1ccoc1 (stereo partly specified)
endpoint result: 0.942 (inactive)
//
compound: O=C(Nc1ccc(Cl)cc1)SCc1c(Cl)cccc1Cl
endpoint result: 0.811 (active)
//
compound: NC12CC3CC(CC(C3)C1)C2
endpoint result: 1.02 (inactive)
//
compound: Cc1nc(-c2cccnc2)nc(NCc2ccccc2)c1Cl
endpoint result: 0.908 (inactive)
//
compound: Cc1ccc(S(=O)(=O)n2c(Sc3ccc([N+](=O)[O-])cc3[N+](=O)[O-])nc3cc(C)ccc32)cc1
endpoint result: 0.862 (inactive)
//
compound: O=C1C(O)=C(O)C(=O)C(O)=C1O
endpoint result: 0.964 (inactive)
//
compound: O=[N+]([O-])c1cnc(Sc2nnc(SCc3cccc(C(F)(F)F)c3)s2)s1
endpoint result: 0.133 (active)
//
compound: O=C1c2c(O)cccc2Cc2cccc(O)c21
endpoint result: 1.17 (inactive)
//
compound: COC1=C[C@@H]2[C@@H]3Cc4ccc(OC)c(O)c4[C@]2(CCN3C)CC1=O
endpoint result: 1.02 (inactive)
//
compound: Cc1nc(-c2ccccn2)nc(SCc2ccccc2)c1Cl
endpoint result: 0.934 (inactive)
//
compound: S=C(Nc1ccc(Cl)cc1)SCc1c(Cl)cccc1Cl
endpoint result: 1.08 (inactive)
//
compound: C/C=C(/C)C(=O)O[C@H]1CC[C@@]2(C)[C@@H]3CC[C@H]4[C@]5(O)C[C@H](O)[C@@]6(O)[C@@H](CN7C[C@@H](C)CC[C@H]7[C@@]6(C)O)[C@]5(O)C[C@@]42O[C@]13O
endpoint result: 0.983 (inactive)
//
compound: CCC(C)C(=O)O[C@H]1[C@H](O)C2C(CN3CC(C)CCC3[C@@]2(C)O)C2C[C@]34O[C@]5(O)C(OC(=O)C(C)(O)CC)CC[C@@]3(C)C5C(OC(C)=O)[C@@H](OC(C)=O)C4[C@@]21O (stereo partly specified)
endpoint result: 1.04 (inactive)
//
compound: Cc1cn([C@H]2C[C@H](N=[N+]=[N-])[C@@H](CO)O2)c(=O)[nH]c1=O
endpoint result: 0.942 (inactive)
//
compound: Cc1cc(O)c2c(c1)Cc1cccc(O)c1C2=O
endpoint result: 1.09 (inactive)

* * *

- assay info: chemical genetic growth profiling, strain panel (AID 1159580);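 further: tested at 20 µM; growth read once vehicle control cultures reached saturation at 30 °C; 1 = growth at the plate median or of vehicle wells; lower values mean less growth of the strain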
- condition info: S. cerevisiae deletion strains, growth OD, locus YPL241C, strain CIN2, stronger effect = lower value
The campaign covered roughly 5,500 compounds. About 2,000 (36%) were called active. Another 18% or so got no clear call; they are omitted. The list shows a part of the results.
property: normalized growth

compound: Cc1cc(C(C)(C)C)c(O)c(C(C)(C)C)c1
endpoint result: 0.98 (inactive)

compound: O=C(CSCc1c(F)cccc1Cl)Nc1ccc(F)c(Cl)c1
endpoint result: 0.781 (active)

compound: Cc1cc(C)cc(NC(=S)N2CCN(c3ncc(C(F)(F)F)cc3Cl)CC2)c1
endpoint result: 0.886 (inactive)

compound: CC(C)c1ccccc1NC(=S)N1CCN(c2ncc(C(F)(F)F)cc2Cl)CC1
endpoint result: 1.07 (inactive)

compound: N[C@H](C(=O)O)[C@H]1C[C@@H]1C(=O)O
endpoint result: 1.01 (inactive)

compound: COc1cc(C2OC(c3cc(C)ccc3[N+](=O)[O-])=NN2C(C)=O)cc(OC)c1OC (configuration not stated)
endpoint result: 1.01 (inactive)

compound: CC(=O)Nc1c(C)c(C)c(C)c(C)c1NC(C)=O
endpoint result: 1.15 [resistant] (active)

compound: CC(=O)NCc1c(I)c(NC(C)=O)c(I)c(C(=O)O)c1I
endpoint result: 1 (inactive)

compound: CCOC(=O)NC(=O)c1cn(Cc2cccs2)c(=O)[nH]c1=O
endpoint result: 1.02 (inactive)

compound: NCc1cc(=O)[nH]o1
endpoint result: 0.989 (inactive)

compound: N[C@H](C(=O)O)[C@@H]1CC(Cl)=NO1
endpoint result: 0.571 (active)

compound: Cn1c(CSCC(=O)Nc2ccccc2)n[nH]c1=S
endpoint result: 1 (inactive)

Source: PubChem BioAssay AID1159580
